These measurements were taken from paper PMC5382271.

Target: T1, SUMO-RRM WT (Schizosaccharomyces pombe, UniProt Q9UTE3 388-540)
T1 sequence: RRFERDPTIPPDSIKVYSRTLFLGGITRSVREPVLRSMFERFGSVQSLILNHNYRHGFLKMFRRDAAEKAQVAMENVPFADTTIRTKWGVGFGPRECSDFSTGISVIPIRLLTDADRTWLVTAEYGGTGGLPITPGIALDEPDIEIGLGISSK
Assay: fluorescence anisotropy; 25 mM Tris-HCl pH 8.0, 100 mM NaCl, 2 mM MgCl2, 1 mM DTT, 16.7% glycerol, 0.1% IGEPAL, 0.1 mg/ml tRNA, 2.5% RNasin, 25 C, 40 nM FAM-RNA
Details: protein: recombinant; tags: N-terminal His6-SUMO; single strand
value-kind: pKd
FYI, pKd means -log10 of a concentration in mol per litre.

Can you share its pKd? I mean this binder: AUUAGUAAAA (ssRNA) [FAM-AUUAGUAAAA RNA]
5.76
